The measured values listed here are drawn from paper doi:10.1101/2024.12.20.629780v2.

Tested on: PMA-differentiated human monocytes (THP-1)
Test: MTT cytotoxicity assay
Format: cell-based
Conditions: Ala-scan
measured parameter: Cytotoxicity in PMA-differentiated THP-1 cells relative to Turingcin-46

• FRWWLYKRALAATTIKIKRAK [R20A-Turingcin-46] = reduced cytotoxicity
• FRWWLYKRALAATTIKIKRRA [K21A-Turingcin-46] = reduced cytotoxicity
• FRWWAYKRALAATTIKIKRRK [L5A-Turingcin-46] = reduced cytotoxicity
• FRWALYKRALAATTIKIKRRK [W4A-Turingcin-46] = reduced cytotoxicity

---

Assay: Resistance to proteolytic degradation in human serum
Type: in vitro ADME
Conditions: 25% human serum in water
Ends that are not written are not given here.
measured parameter: remaining at 1 h, 7 mg mL-1

Ask: Using the record for FRWWLYKRALAATTIKIKRRK [Turingcin-46] , report its remaining at 1 h, 7 mg mL-1.
Result: ~50%
